TESTED_SYSTEM: Ubiquitin-activating enzyme e1, putative (Leishmania donovani (strain BPK282A1)) (UniProt E9BSI1)
Sequence (E9BSI1 as listed by the source): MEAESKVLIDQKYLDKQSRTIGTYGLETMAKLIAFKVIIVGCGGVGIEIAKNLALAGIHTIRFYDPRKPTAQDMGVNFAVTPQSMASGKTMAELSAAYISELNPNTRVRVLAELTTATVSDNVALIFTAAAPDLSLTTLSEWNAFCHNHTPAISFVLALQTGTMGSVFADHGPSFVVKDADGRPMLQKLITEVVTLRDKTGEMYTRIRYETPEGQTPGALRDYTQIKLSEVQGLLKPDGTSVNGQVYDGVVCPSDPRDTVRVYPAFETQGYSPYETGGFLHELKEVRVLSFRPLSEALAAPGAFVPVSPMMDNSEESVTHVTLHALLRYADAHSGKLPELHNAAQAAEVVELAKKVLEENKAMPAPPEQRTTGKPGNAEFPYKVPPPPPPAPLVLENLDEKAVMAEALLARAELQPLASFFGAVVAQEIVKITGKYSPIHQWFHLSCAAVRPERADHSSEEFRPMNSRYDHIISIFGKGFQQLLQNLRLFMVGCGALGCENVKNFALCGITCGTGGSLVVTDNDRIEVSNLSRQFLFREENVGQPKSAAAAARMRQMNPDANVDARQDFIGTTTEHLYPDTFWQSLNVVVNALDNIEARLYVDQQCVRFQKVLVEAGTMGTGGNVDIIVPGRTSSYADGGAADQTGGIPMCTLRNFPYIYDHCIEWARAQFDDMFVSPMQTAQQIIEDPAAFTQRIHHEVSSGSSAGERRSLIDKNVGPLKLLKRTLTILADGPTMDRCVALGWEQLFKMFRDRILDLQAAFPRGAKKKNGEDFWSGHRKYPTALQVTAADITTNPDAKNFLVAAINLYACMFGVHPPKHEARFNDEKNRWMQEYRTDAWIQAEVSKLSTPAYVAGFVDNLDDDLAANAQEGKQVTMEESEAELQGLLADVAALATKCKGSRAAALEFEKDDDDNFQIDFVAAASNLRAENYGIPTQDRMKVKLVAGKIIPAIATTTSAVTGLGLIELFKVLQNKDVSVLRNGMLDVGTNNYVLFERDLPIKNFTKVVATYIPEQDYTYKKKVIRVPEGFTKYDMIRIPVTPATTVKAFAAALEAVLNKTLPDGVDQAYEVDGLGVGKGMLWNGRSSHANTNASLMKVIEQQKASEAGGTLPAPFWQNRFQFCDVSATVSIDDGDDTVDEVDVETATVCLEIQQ
EXPERIMENTAL_PROTOCOL: Leishmania donovani Ubiquitin Activating Enzyme (LdE1)
Format: functional
Design: scale not given: direction of the effect not stated beside the values
CONDITION_SET: 30 µM
Results with a measured potency or affinity are listed apart.
READOUT_LABEL: Percent Effect (%)
Numbers only, in %.

Consider the worked cases shown below.
COMPOUND	QUANTITATIVE_READOUT
Cc1ccc(-c2cc(CNC(=O)N3CCOC(C)C3)on2)cc1 (stereo unspecified)	8.11
O=C(CSc1nncs1)N1CCN(Cc2ccc(Cl)s2)CC1	5.48
CNc1nc2c(s1)C(c1c(F)cccc1Cl)CC(=O)N2 (stereo unspecified)	13.2
Cn1cc(C[C@H]2[C@@H](O)CCN2C(=O)C2CC=CC2)cn1	7.79
CCOCCn1c(=O)[nH]c2cc(C(=O)N(C)Cc3nc(C)cs3)ccc21	8.11
Cc1nc(-c2ccccc2)n(CC(=O)NCC(C)C)n1	13.5

Hi team, please reply with Percent Effect for each item in this list.
1. Cc1nc(CN2CCCN(C(=O)c3ccccn3)CC2)oc1C
2. Cc1nc(CN(C)C2CCN(Cc3sc(C)nc3C)C2)no1 (stereo unspecified)
3. c1cnnc(N2CCCC2CNCc2cc[nH]n2)c1 (stereo unspecified)
4. Cc1ccc(C(=O)NS(=O)(=O)c2cc(Cl)ccc2Cl)c(=O)[nH]1
5. Clc1ccc2oc(C3CCN(Cc4cccnc4)CC3)nc2c1

### Response
1. 7.79
2. 7.89
3. 0
4. 5.41
5. 13.5

Hi team, please reply with Percent Effect for each item in this list.
1. COc1ccc(C(CO)NC(=O)Nc2cccnc2)cc1 (stereo unspecified)
2. c1cnc(N2CCCC(NCc3cccc4c3OCCO4)C2)nc1 (stereo unspecified)
3. COc1ccc(C2Nc3ccccc3C3=NCCCN32)cc1OC (stereo unspecified)
4. O=C(CC1CC1)NCc1cc(=O)n2c(n1)CN(Cc1ccoc1)CCC2
5. Cc1cnn(CC(C)NCc2csc(-c3ccco3)n2)c1 (stereo unspecified)

### Response
[-2.7, -5.41, -2.67, -11, -3.8]

---

Kindly supply the reported Percent Effect values for the records listed here.
Test system: Trypanosoma cruzi
EXPERIMENTAL_PROTOCOL: Trypanosoma cruzi phosphomannomutase and mannose-1-phosphate guanylyltransferase assay
Format: functional
Set-up: scale not given: direction of the effect not stated beside the values
CONDITION_SET: 10 µM
One number for each entry, in %.

COMPOUND	TESTED_SYSTEM	Percent Effect [%]
CC(C)(C)c1ccc(C2(C(=O)NCCS(N)(=O)=O)CC2)cc1	Trypanosoma cruzi	3.25

Hi team, please reply with Percent Effect for each item in this list.
1. CC(C)n1cc(S(=O)(=O)N2CCCCC2)cn1
2. CNC(=O)CCc1cc(C)nc(C2CCCN2)c1 (stereo not drawn)
3. COCc1nc(C(=O)N2CCCCC2Cn2cccn2)cs1 (stereo not drawn)
4. Cc1cc(C(=O)NCc2cccnc2OC(C)C)no1

### Response
1: 0.393; 2: 2.17; 3: 6.82; 4: -5.19

Hi team, please reply with Percent Effect for each item in this list.
1. Cc1nc(C)n(CC2CN(CC(=O)Nc3nccs3)CCO2)n1 (stereo not drawn)
2. CN1CCCC(CNC(=O)N2CCN(Cc3ccon3)CC2)C1 (stereo not drawn)
3. O=C(c1ccc[nH]1)N1CCn2cc(Cn3cncn3)nc2C1

### Response
1. 3.98
2. 3.02
3. -3.94

---

Tested on: Trypanosoma cruzi
EXPERIMENTAL_PROTOCOL: Trypanosoma cruzi phosphomannomutase and mannose-1-phosphate guanylyltransferase assay
Format: functional
Design: scale not given: direction of the effect not stated beside the values
CONDITION_SET: 10 µM
Kindly supply the reported Percent Effect values for the records listed here.
Give bare numbers, in %.

MOLECULE	TESTED_SYSTEM	QUANTITATIVE_READOUT
CCc1cc(NCC(O)CN2CCCCC2)n2ncnc2n1 (stereo not given)	Trypanosoma cruzi	1.27
CCOc1nnc(CN(C)C2CCCN(c3cccnn3)C2)s1 (stereo not given)	Trypanosoma cruzi	7.5
CSc1ncccc1C(=O)N1C[C@H]2CC[C@@H]1CN(c1cnccn1)C2	Trypanosoma cruzi	-3.44
Cc1cccc(-c2nc(CN3CCc4c(ncn4C)C3)no2)c1	Trypanosoma cruzi	-7.12
CNC(=O)c1ccc(OC2CCN(S(C)(=O)=O)CC2)c(Cl)c1	Trypanosoma cruzi	0.68
CS(=O)(=O)N1CCCC12CCCN(S(=O)(=O)c1cc(F)cc(F)c1)C2 (stereo not given)	Trypanosoma cruzi	-3.23
Cc1nnc(C(C)N2CCN(Cc3ccc(C#N)cc3)CC2)o1 (stereo not given)	Trypanosoma cruzi	-8.77
COc1cc(C)nc(N2CCN(C(=O)CCn3cc(C)cn3)CC2)n1	Trypanosoma cruzi	-6.52

Hi team, please reply with Percent Effect for each item in this list.
1. CCC(C)N(C)CCNC(=O)NCc1cccc(-n2cncn2)c1 (stereo not given)
2. Cn1ccc(C(=O)N2CCC(Cc3cccc4cccnc34)C2)n1 (stereo not given)
3. Cc1c(C(=O)NC(C)C(C)C)nnn1-c1cccc2c1CCN(C)C2 (stereo not given)

### Response
4.59
-5.73
1.85

Hi team, please reply with Percent Effect for each item in this list.
1. CC(C)(O)C1CCN(C(=O)Nc2nc(-c3ccccc3)ns2)CC1
2. COC1CCN(C(=O)Cc2csc(-c3ncccn3)n2)CC1

### Response
1: 2.25; 2: 6.96

Hi team, please reply with Percent Effect for each item in this list.
1. CC(=O)Nc1cccc(C(=O)Nc2cnc3n2CCCC3)c1
2. O=C1CCC(C(=O)NCc2nncn2-c2ccccc2)CN1 (stereo not given)
3. CN(C)c1nccc(N2CCO[C@H]3CN(CC4CCOCC4)C[C@H]32)n1
4. CN(C)C[C@H]1OC[C@@H]2CCN(C(=O)c3cccn3C)C[C@@H]21
5. CC(C)(C)N1CCCN(C(=O)c2csc(S(N)(=O)=O)c2)CC1
6. COc1cccc(CNc2nc(O)cc(C3CC(=O)N(C)C3)n2)c1 (stereo not given)
7. CN(C)C(=O)CN1C[C@@H]2CC[C@H](C1)N(Cc1cccc(Cl)c1Cl)C2
8. FC(F)(F)c1cccc(C2(CNCc3ccncc3)CCOCC2)c1

### Response
-1.46
3.68
4.37
4.59
-5.57
-4.35
2.58
-2.34

---

TESTED_SYSTEM: Protein translocase subunit SecA (Escherichia coli (strain K12))
EXPERIMENTAL_PROTOCOL: Assay to Identify E. coli SecA ATPase Inhibitors
Assay type: functional
Design: scale not given: direction of the effect not stated beside the values
CONDITION_SET: 30 µM
Potency and affinity values are given separately.
Kindly supply the reported Percent Effect values for the records listed here.
Reply with the number and its unit after it.

COMPOUND	Percent Effect
N#Cc1cccnc1NCc1cccnc1N1CCC(C(N)=O)CC1	-4.85%
CCn1cc(CN2CCCN(C(=O)c3ccn(C)c(=O)c3)CC2)cn1	-0.55%
CC(C1CC1)N(C(=O)NCCCn1nc2ccccn2c1=O)C1CC1 (configuration not stated)	-5.32%
CCOc1cccc2c1OCC(C(=O)NS(=O)(=O)c1ccc(Cl)cc1)=C2	-8.58%
CCc1nc(NCCCn2cccn2)c2c(n1)c(C)nn2C	-3.56%
CC(=O)c1cccc(NC(=O)Cn2cc(I)cn2)c1	-6.3%

Hi team, please reply with Percent Effect for each item in this list.
1. O=C(COCc1nc(-c2ccncc2)no1)N1CCCC1
2. CSCC(C)(O)CNC(=O)c1cc(Br)ccc1Cl (configuration not stated)
3. N#Cc1cc(NC(=O)c2ccccc2)ccc1N1CCC(O)CC1
4. Cc1nc(C(C)(C)NC(=O)Nc2ccccc2)no1

### Response
["-2.71%", "-6.56%", "-0.198%", "-11.3%"]

Hi team, please reply with Percent Effect for each item in this list.
1. CC(NC(=O)NCCCN(C)S(C)(=O)=O)c1ccncc1 (configuration not stated)
2. Cc1ccccc1Oc1ncccc1CNS(C)(=O)=O

### Response
1: -0.684%; 2: -5.18%

---

Kindly supply the reported Percent Effect values for the records listed here.
TESTED_SYSTEM: Chromo domain-containing protein 1 (Saccharomyces cerevisiae (strain ATCC 204508 / S288c) (Baker's yeast)) (UniProt P32657)
Sequence (P32657 whole entry, the tested form may be a part): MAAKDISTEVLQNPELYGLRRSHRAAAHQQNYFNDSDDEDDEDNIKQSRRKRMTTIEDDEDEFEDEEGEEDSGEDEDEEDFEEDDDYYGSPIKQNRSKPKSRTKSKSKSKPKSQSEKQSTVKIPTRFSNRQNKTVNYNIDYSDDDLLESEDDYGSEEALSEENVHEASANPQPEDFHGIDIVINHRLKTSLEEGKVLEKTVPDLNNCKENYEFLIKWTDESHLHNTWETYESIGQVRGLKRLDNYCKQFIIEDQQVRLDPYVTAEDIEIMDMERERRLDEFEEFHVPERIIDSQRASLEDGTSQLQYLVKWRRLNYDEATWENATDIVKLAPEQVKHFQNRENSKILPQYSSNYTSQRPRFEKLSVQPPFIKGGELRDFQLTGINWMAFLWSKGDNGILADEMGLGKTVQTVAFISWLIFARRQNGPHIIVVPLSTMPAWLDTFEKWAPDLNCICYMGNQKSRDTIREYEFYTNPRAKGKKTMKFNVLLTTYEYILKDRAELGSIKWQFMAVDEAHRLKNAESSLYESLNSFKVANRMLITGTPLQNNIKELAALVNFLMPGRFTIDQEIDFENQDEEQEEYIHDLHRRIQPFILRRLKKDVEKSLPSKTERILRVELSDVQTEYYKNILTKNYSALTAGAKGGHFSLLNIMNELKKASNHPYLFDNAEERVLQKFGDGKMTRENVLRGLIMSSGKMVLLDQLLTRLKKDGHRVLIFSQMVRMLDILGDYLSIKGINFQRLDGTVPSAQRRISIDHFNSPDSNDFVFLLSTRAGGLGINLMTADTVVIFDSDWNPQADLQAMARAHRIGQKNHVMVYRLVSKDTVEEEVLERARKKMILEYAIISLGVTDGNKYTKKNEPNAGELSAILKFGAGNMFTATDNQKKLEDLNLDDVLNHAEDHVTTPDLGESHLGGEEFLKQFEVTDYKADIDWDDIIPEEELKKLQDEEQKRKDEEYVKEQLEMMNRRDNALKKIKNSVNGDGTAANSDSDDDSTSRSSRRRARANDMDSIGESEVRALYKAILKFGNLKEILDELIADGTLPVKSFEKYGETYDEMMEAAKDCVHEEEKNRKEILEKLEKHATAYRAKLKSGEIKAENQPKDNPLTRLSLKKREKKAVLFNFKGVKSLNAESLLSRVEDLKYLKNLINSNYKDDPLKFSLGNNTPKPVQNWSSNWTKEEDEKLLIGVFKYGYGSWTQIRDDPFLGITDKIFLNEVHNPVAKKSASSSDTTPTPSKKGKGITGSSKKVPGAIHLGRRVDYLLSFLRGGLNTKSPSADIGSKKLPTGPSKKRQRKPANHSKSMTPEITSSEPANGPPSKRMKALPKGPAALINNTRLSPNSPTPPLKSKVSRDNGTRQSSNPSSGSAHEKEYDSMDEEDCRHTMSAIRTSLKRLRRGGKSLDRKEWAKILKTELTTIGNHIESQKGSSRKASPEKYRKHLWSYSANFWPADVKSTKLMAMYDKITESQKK
EXPERIMENTAL_PROTOCOL: ScCHD-1 Enzyme Inhibition Assay; also: in the data most compounds retested in dose-response had high values
Type: functional
Parameters: scale not given: direction of the effect not stated beside the values
CONDITION_SET: 30 µM
Give bare numbers, in %.

Consider the worked cases shown below.
MOLECULE	Percent Effect (%)
NC(=O)COc1cccc(C(=O)N2CCCC(n3ccnc3)C2)c1 (centres undefined)	2.43
COCC(=O)N1CCC(c2nc3ccc(N4CCCC4)cn3n2)CC1	-3.02

Hi team, please reply with Percent Effect for each item in this list.
1. CNc1cccc(C2CCCN(C(=O)c3ccncc3)C2)n1 (centres undefined)
2. CN1CCC(NC(=O)NCc2csc(Br)c2)CC1
3. O=C(COC[C@H]1CC[C@H]2[C@H](CCN2c2ncccn2)O1)N1CCCC1
4. CCOCC(O)CN1CCN(C(=O)CC(C)C)CC1 (centres undefined)
5. Cc1cc(OCC(=O)NC(C)c2ccc(N3CCOCC3)cc2)no1 (centres undefined)
6. CC1CN(Cc2noc(C3CC3)n2)CCN1Cc1nccn1C (centres undefined)
7. Cc1ncsc1C(=O)NC1CCN(Cc2cccnc2)CC1
8. CC1=Nc2c(c(=O)[nH]n2C(C)C)C(c2ccc(F)c(F)c2)S1 (centres undefined)

### Response
-14.3
-4.58
-1.93
-7.14
-6.7
-1.35
-11.8
2.07

Hi team, please reply with Percent Effect for each item in this list.
1. O=C(NCc1ccccn1)c1nnn(-c2ccc(Br)cc2)n1
2. COc1ccc(OC)c(NC(=O)N2CCCC2c2ccco2)c1 (centres undefined)
3. COc1ncccc1NC(=O)C1CC(=O)N(Cc2ccccn2)C1 (centres undefined)
4. CCOCC1CN(S(=O)(=O)N(C)C)Cc2cnn(C)c21 (centres undefined)
5. OC1CCN(Cc2c(C3CCCNC3)[nH]c3ncccc23)CC1 (centres undefined)
6. Oc1cc(CCC2CCCCN2)cc(-c2ccncc2)c1 (centres undefined)

### Response
1. -12.6
2. -8.44
3. -2.98
4. -2.91
5. -6.12
6. -3.03

Hi team, please reply with Percent Effect for each item in this list.
1. Cc1cc(C(F)(F)F)nn1CC(C)C(=O)Nc1ccncc1 (centres undefined)
2. O=c1[nH]c2c(c(=O)n1C1CCCCC1)CCC2Nc1ccccc1Cl (centres undefined)
3. CC(=O)Nc1nc(CN2CCCCC2Cn2cccn2)cs1 (centres undefined)
4. O=C(c1ccccc1-n1cccn1)N1CCCN(c2cccnn2)CC1

### Response
[-5.12, -11.3, -6.41, -13.5]
